Read-out record for Adenosine receptor A1 (Homo sapiens): Ki

chemical.smiles	qualifier.symbol	Ki, nM
CCNC(=O)[C@H]1O[C@@H](n2cnc3c(NCc4ccccc4C)ncnc32)[C@H](O)[C@@H]1O	=	106
CNc1nc(N)nc2c1ncn2[C@@H]1O[C@H](CO)[C@@H](O)[C@H]1O	=	484
CNc1nc(C(=N)N)nc2c1ncn2[C@@H]1O[C@H](CO)[C@@H](O)[C@H]1O	>	10000
CNC(=O)[C@H]1O[C@@H](n2cnc3c(NCCN)ncnc32)[C@H](O)[C@@H]1O	=	775
Cc1ccccc1CNc1ncnc2c1ncn2[C@@H]1O[C@H](C(=O)NN)[C@@H](O)[C@H]1O	>	10000
CNc1nc(CN)nc2c1ncn2[C@@H]1O[C@H](CO)[C@@H](O)[C@H]1O	>	10000
NCCCCNC(=O)[C@H]1O[C@@H](n2cnc3c(N)ncnc32)[C@H](O)[C@@H]1O	>	100000

---

study.system: Adenosine receptor A3 (Homo sapiens, UniProt P0DMS8)
Sequence (P0DMS8 whole entry): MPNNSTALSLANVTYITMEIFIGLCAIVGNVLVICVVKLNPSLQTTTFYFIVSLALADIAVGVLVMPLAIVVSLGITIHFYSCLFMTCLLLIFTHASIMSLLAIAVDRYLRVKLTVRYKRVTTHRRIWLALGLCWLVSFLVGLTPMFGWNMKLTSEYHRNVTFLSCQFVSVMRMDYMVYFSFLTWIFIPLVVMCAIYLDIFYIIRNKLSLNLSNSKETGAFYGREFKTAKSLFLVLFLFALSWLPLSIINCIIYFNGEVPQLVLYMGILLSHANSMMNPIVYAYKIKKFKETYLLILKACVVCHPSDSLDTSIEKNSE
pKi: −log10 of the molar value.
Note to self: values exactly at 6 are Satisfied. So pKi at or above 6 is Satisfied, below is Not satisfied.

chemical.smiles	label.value
CNc1nc(C(=N)N)nc2c1ncn2[C@@H]1O[C@H](CO)[C@@H](O)[C@H]1O	Not satisfied
NCCCCCNC(=O)[C@H]1O[C@@H](n2cnc3c(N)ncnc32)[C@H](O)[C@@H]1O	Not satisfied
NCCCCNC(=O)[C@H]1O[C@@H](n2cnc3c(N)ncnc32)[C@H](O)[C@@H]1O	Not satisfied
NCCCNC(=O)[C@H]1O[C@@H](n2cnc3c(N)ncnc32)[C@H](O)[C@@H]1O	Not satisfied
CNc1nc(N)nc2c1ncn2[C@@H]1O[C@H](CO)[C@@H](O)[C@H]1O	Satisfied
Cc1ccccc1CNc1ncnc2c1ncn2[C@@H]1O[C@H](C(=O)NCCN)[C@@H](O)[C@H]1O	Not satisfied
CNC(=O)[C@H]1O[C@@H](n2cnc3c(NCCN)ncnc32)[C@H](O)[C@@H]1O	Not satisfied
Cc1ccccc1CNc1ncnc2c1ncn2[C@@H]1O[C@H](CO)[C@@H](O)[C@H]1O	Satisfied
NNC(=O)[C@H]1O[C@@H](n2cnc3c(N)ncnc32)[C@H](O)[C@@H]1O	Satisfied
Cc1ccccc1CNc1ncnc2c1ncn2[C@@H]1O[C@H](C(=O)NN)[C@@H](O)[C@H]1O	Satisfied
CCNC(=O)[C@H]1O[C@@H](n2cnc3c(NCc4ccccc4C)ncnc32)[C@H](O)[C@@H]1O	Satisfied

---

study.system: Adenosine receptor A2a (Homo sapiens, UniProt P29274)
Sequence (P29274 whole entry): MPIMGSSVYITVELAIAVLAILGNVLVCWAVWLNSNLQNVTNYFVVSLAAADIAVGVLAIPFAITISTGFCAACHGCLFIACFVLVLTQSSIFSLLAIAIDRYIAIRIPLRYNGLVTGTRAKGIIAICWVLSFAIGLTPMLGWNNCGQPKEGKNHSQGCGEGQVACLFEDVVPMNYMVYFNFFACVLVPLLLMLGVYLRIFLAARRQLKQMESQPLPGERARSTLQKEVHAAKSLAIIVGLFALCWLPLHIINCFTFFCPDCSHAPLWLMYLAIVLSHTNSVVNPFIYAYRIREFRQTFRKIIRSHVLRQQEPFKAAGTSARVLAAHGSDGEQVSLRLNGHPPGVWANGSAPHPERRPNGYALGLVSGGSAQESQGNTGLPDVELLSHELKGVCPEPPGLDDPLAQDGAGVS
method.notes: Binding Assay
From the text: Binding affinity of ligand at human adenosine receptors expressed in CHO cell.
property.measured: Ki

compound	property.measured	result
CNc1nc(CN)nc2c1ncn2[C@@H]1O[C@H](CO)[C@@H](O)[C@H]1O [Adenosine analog, 18]	Ki	> 10 µM
CNC(=O)[C@H]1O[C@@H](n2cnc3c(NCCN)ncnc32)[C@H](O)[C@@H]1O [Adenosine analog, 5]	Ki	> 100 µM
NCCCNC(=O)[C@H]1O[C@@H](n2cnc3c(N)ncnc32)[C@H](O)[C@@H]1O [Adenosine analog, 8]	Ki	> 10 µM
CNc1nc(N)nc2c1ncn2[C@@H]1O[C@H](CO)[C@@H](O)[C@H]1O [Adenosine analog, 17]	Ki	> 10 µM
NCCCCCNC(=O)[C@H]1O[C@@H](n2cnc3c(N)ncnc32)[C@H](O)[C@@H]1O [Adenosine analog, 10]	Ki	> 100 µM
Cc1ccccc1CNc1ncnc2c1ncn2[C@@H]1O[C@H](C(=O)NN)[C@@H](O)[C@H]1O [Adenosine analog, 12]	Ki	> 10 µM

---

study.system: Adenosine receptor A2b (Homo sapiens, UniProt P29275)
Sequence (P29275 whole entry): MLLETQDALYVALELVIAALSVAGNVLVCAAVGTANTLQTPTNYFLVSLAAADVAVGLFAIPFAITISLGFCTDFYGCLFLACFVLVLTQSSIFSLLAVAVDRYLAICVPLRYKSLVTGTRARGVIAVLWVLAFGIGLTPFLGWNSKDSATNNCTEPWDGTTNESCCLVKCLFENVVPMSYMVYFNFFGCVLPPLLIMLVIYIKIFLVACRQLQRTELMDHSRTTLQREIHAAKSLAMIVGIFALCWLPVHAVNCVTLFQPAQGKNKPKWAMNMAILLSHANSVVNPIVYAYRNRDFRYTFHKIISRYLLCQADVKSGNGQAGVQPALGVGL
method.notes: Binding Assay
pEC50: −log10 of the molar value.

compound	qualifier.symbol	pEC50
CCNC(=O)[C@H]1O[C@@H](n2cnc3c(N=C(N)N)ncnc32)[C@H](O)[C@@H]1O	=	7.26
Cc1ccccc1CNc1ncnc2c1ncn2[C@@H]1O[C@H](C(=O)NCCO)[C@@H](O)[C@H]1O [Adenosine analog, 15]	=	5.43
CNc1nc(N)nc2c1ncn2[C@@H]1O[C@H](CO)[C@@H](O)[C@H]1O [Adenosine analog, 17]	<	5.00
NCCCNC(=O)[C@H]1O[C@@H](n2cnc3c(N)ncnc32)[C@H](O)[C@@H]1O [Adenosine analog, 8]	<	5.00
NCCNC(=O)[C@H]1O[C@@H](n2cnc3c(N)ncnc32)[C@H](O)[C@@H]1O	=	4.81
